Tested on: HOP-62 complex spheroids with HUVEC/MSC, viability
TEST_DESCRIPTION: Anticancer human tumor HOP-62 cell line growth inhibition [RAS];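 note: spheroids exposed to agents for seven days before readout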;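 for viability, T/C: 100% = DMSO vehicle control viability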
SETUP_CONDITIONS: second compound 0.1 µM; first compound 0.1 µM; stronger effect = lower value
Excerpt: RAS pathway inhibitors in Combinations in Complex Spheroids A high-throughput screen of multi-cell type tumor spheroids was designed to identify active combinations of RAS pathway inhibitors and targeted small molecules. Complex spheroids include a stromal component modeled by human endothelial cells (HUVEC) and fibroblasts modeled by human mesenchymal stem cells (MSCs). […] Compounds. […] If the clinical Cmax for an agent had not been determined, the highest concentration tested was 10 microM. […]
# viability, T/C binned as low range: < 10%; mid range: ≥ 10% and < 30%; high range: ≥ 30%

Note: place this compound into its band. Item: CC(C)n1nc(-c2ccc3oc(N)nc3c2)c2c(N)ncnc21 + C#Cc1c(F)ccc2cc(O)cc(-c3ncc4c(N5CC6CCC(C5)N6)nc(OCC56CCCN5CC(F)C6)nc4c3F)c12
mid range

Hello team, could you let me know which band the following compound falls into: Nc1ccn(C2OC(CO)C(O)C2(F)F)c(=O)n1 (centres undefined) + C=CC(=O)N1CCN(c2nc(OCC3CCCN3C)nc3c(F)c(-c4nc(N)cc(C)c4C(F)(F)F)c(Cl)cc23)C(C)C1
low range

Categorize the following entry: O=C(c1ccc(F)c(F)c1Nc1ccc(I)cc1F)N1CC(O)([C@@H]2CCCCN2)C1 + C=CC(=O)N1CCN(c2nc(OCC3CCCN3C)nc3c(F)c(-c4nc(N)cc(C)c4C(F)(F)F)c(Cl)cc23)C(C)C1
mid range

Assign a category based on measured viability, T/C for O=C(c1ccc(F)c(F)c1Nc1ccc(I)cc1F)N1CC(O)([C@@H]2CCCCN2)C1 + C#Cc1c(F)ccc2cc(O)cc(-c3ncc4c(N5CC6CCC(C5)N6)nc(OCC56CCCN5CC(F)C6)nc4c3F)c12 and give only the class name.
high range

Lab note: sort CC(=O)OC12COC1CC(O)C1(C)C(=O)C(O)C3=C(C)C(OC(=O)C(O)C(NC(=O)OC(C)(C)C)c4ccccc4)CC(O)(C(OC(=O)c4ccccc4)C21)C3(C)C (centres undefined) + C#Cc1c(F)ccc2cc(O)cc(-c3ncc4c(N5CC6CCC(C5)N6)nc(OCC56CCCN5CC(F)C6)nc4c3F)c12 into the matching viability, T/C band.
mid range

Please indicate the class for Nc1ccn(C2OC(CO)C(O)C2(F)F)c(=O)n1 (centres undefined) + C#Cc1c(F)ccc2cc(O)cc(-c3ncc4c(N5CC6CCC(C5)N6)nc(OCC56CCCN5CC(F)C6)nc4c3F)c12 based on its viability, T/C.
low range

Which of the defined bands does the recorded viability, T/C of NC1c2ccccc2OC12CCN(c1cnc3c(N4CCCc5ncccc54)n[nH]c3n1)CC2 (centres undefined) + C#Cc1c(F)ccc2cc(O)cc(-c3ncc4c(N5CC6CCC(C5)N6)nc(OCC56CCCN5CC(F)C6)nc4c3F)c12 sit within?
high range

# classify by viability, T/C band: NC1c2ccccc2OC12CCN(c1cnc3c(N4CCCc5ncccc54)n[nH]c3n1)CC2 (centres undefined) + C=CC(=O)N1CCN(c2nc(OCC3CCCN3C)nc3c(F)c(-c4nc(N)cc(C)c4C(F)(F)F)c(Cl)cc23)C(C)C1
mid range

Tag the class for CC(=O)OC12COC1CC(O)C1(C)C(=O)C(O)C3=C(C)C(OC(=O)C(O)C(NC(=O)OC(C)(C)C)c4ccccc4)CC(O)(C(OC(=O)c4ccccc4)C21)C3(C)C (centres undefined) + C=CC(=O)N1CCN(c2nc(OCC3CCCN3C)nc3c(F)c(-c4nc(N)cc(C)c4C(F)(F)F)c(Cl)cc23)C(C)C1
mid range

====

System: HOP-62 complex spheroids with HUVEC/MSC, viability
TEST_DESCRIPTION: Anticancer human tumor HOP-62 cell line growth inhibition [RAS];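 note: spheroids exposed to agents for seven days before readout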
SETUP_CONDITIONS: curve of first compound; second compound 0.003 µM
ENDPOINT_LABEL: IC50 (nM)
// units = nM; emit number, no label

Data point: CCc1c2c(nc3ccc(O)cc13)-c1cc3c(c(=O)n1C2)COC(=O)[C@]3(O)CC + CCn1c(-c2cc(N3CCN(C)CC3)cnc2C(C)OC)c2c3cc(ccc31)-c1csc(n1)CC(NC(=O)C1CC1C)C(=O)N1CCCC(N1)C(=O)OCC(C)(C)C2 ; IC50 = 1.54

====

System: HOP-62 complex spheroids with HUVEC/MSC, viability
TEST_DESCRIPTION: Anticancer human tumor HOP-62 cell line growth inhibition [RAS];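 note: spheroids exposed to agents for seven days before readout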;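 for viability, T/C: 100% = DMSO vehicle control viability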
SETUP_CONDITIONS: second compound 0.00316 µM; first compound 0.01 µM; stronger effect = lower value
ENDPOINT_LABEL: viability, T/C (%)
Return type: number; implicit unit %.

The compound listed as CC(C)n1nc(-c2ccc3oc(N)nc3c2)c2c(N)ncnc21 + C=CC(=O)N1CCN(c2nc(OCC3CCCN3C)nc3c(F)c(-c4nc(N)cc(C)c4C(F)(F)F)c(Cl)cc23)C(C)C1 shows viability, T/C equal to 39.5

Input C=CC(=O)Nc1cc(Nc2nccc(-c3cn(C)c4ccccc34)n2)c(OC)cc1N(C)CCN(C)C + C=CC(=O)N1CCN(c2nc(OCC3CCCN3C)nc3c(F)c(-c4nc(N)cc(C)c4C(F)(F)F)c(Cl)cc23)C(C)C1 . Output viability, T/C: 74.9

// viability, T/C value for Nc1ccn(C2OC(CO)C(O)C2(F)F)c(=O)n1 (stereo not given) + C=CC(=O)N1CCN(c2nc(OCC3CCCN3C)nc3c(F)c(-c4nc(N)cc(C)c4C(F)(F)F)c(Cl)cc23)C(C)C1 : 11.7

Recorded viability, T/C (compound CCN1CCN(Cc2ccc(Nc3ncc(F)c(-c4cc(F)c5nc(C)n(C(C)C)c5c4)n3)nc2)CC1 + C=CC(=O)N1CCN(c2nc(OCC3CCCN3C)nc3c(F)c(-c4nc(N)cc(C)c4C(F)(F)F)c(Cl)cc23)C(C)C1 ): 84.1

Per the records, this compound ( O=C(c1ccc(F)c(F)c1Nc1ccc(I)cc1F)N1CC(O)([C@@H]2CCCCN2)C1 + C=CC(=O)N1CCN(c2nc(OCC3CCCN3C)nc3c(F)c(-c4nc(N)cc(C)c4C(F)(F)F)c(Cl)cc23)C(C)C1 ) has viability, T/C equal to 77.8

====

I'd appreciate it if you could supply viability, T/C values for the items below.
Tested on: HOP-62 complex spheroids with HUVEC/MSC, viability
TEST_DESCRIPTION: Anticancer human tumor HOP-62 cell line growth inhibition [RAS];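 note: spheroids exposed to agents for seven days before readout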;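 for viability, T/C: 100% = DMSO vehicle control viability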
SETUP_CONDITIONS: second compound 0.0316 µM; first compound 0.3 µM; stronger effect = lower value
Output spec: scalar in %, unitless text.

Recorded result, CC1(C)CCC(Nc2ncc(C(F)(F)F)c(-c3c[nH]c4c(P(C)(C)=O)c(C#N)ccc34)n2)CN1 (centres undefined) + C#Cc1c(F)ccc2cc(O)cc(-c3ncc4c(N5CC6CCC(C5)N6)nc(OCC56CCCN5CC(F)C6)nc4c3F)c12 , viability, T/C: 25.8

// CC1(C)CCC(Nc2ncc(C(F)(F)F)c(-c3c[nH]c4c(P(C)(C)=O)c(C#N)ccc34)n2)CN1 (centres undefined) + C=CC(=O)N1CCN(c2nc(OCC3CCCN3C)nc3c(F)c(-c4nc(N)cc(C)c4C(F)(F)F)c(Cl)cc23)C(C)C1 : viability, T/C value = 22.5

For reference, reported viability, T/C for CCc1c2c(nc3ccc(O)cc13)-c1cc3c(c(=O)n1C2)COC(=O)[C@]3(O)CC + C=CC(=O)N1CCN(c2nc(OCC3CCCN3C)nc3c(F)c(-c4nc(N)cc(C)c4C(F)(F)F)c(Cl)cc23)C(C)C1 stands at 2.57

Quick note, viability, T/C for CCc1c2c(nc3ccc(O)cc13)-c1cc3c(c(=O)n1C2)COC(=O)[C@]3(O)CC + C#Cc1c(F)ccc2cc(O)cc(-c3ncc4c(N5CC6CCC(C5)N6)nc(OCC56CCCN5CC(F)C6)nc4c3F)c12 landed at 2.78

====

Tested on: HOP-62 complex spheroids with HUVEC/MSC, viability
TEST_DESCRIPTION: Anticancer human tumor HOP-62 cell line growth inhibition [RAS];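 note: spheroids exposed to agents for seven days before readout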;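 for viability, T/C: 100% = DMSO vehicle control viability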
SETUP_CONDITIONS: second compound 1 µM; first compound 0.316 µM; stronger effect = lower value
Consider the following compounds; for each one, report its viability, T/C.
Kindly answer with a numeric value in %, unit omitted.

The measured viability, T/C that C=CC(=O)N1CCN(c2nc(OCC3CCCN3C)nc3c(F)c(-c4nc(N)cc(C)c4C(F)(F)F)c(Cl)cc23)C(C)C1 (stereo not drawn) + C#Cc1c(F)ccc2cc(O)cc(-c3ncc4c(N5CC6CCC(C5)N6)nc(OCC56CCCN5CC(F)C6)nc4c3F)c12 showed for HOP-62 complex spheroids with HUVEC/MSC, viability is 59.2

Considering NC1c2ccccc2OC12CCN(c1cnc3c(N4CCCc5ncccc54)n[nH]c3n1)CC2 (stereo not drawn) + C#Cc1c(F)ccc2cc(O)cc(-c3ncc4c(N5CC6CCC(C5)N6)nc(OCC56CCCN5CC(F)C6)nc4c3F)c12 , its viability, T/C with HOP-62 complex spheroids with HUVEC/MSC, viability was recorded as 29.7

Test item Cc1nc(N2CCC3(CC2)COC(C)C3N)c(CO)nc1Sc1ccnc(N)c1Cl (stereo not drawn) + C#Cc1c(F)ccc2cc(O)cc(-c3ncc4c(N5CC6CCC(C5)N6)nc(OCC56CCCN5CC(F)C6)nc4c3F)c12 ; HOP-62 complex spheroids with HUVEC/MSC, viability; reported viability, T/C was 61.3

Source of measurements: PubChem BioAssay AID2060892
